The origin of these recorded values is ChEMBL document CHEMBL3272160.

# Test system: UniProtKB P70536
# Sequence (whole entry): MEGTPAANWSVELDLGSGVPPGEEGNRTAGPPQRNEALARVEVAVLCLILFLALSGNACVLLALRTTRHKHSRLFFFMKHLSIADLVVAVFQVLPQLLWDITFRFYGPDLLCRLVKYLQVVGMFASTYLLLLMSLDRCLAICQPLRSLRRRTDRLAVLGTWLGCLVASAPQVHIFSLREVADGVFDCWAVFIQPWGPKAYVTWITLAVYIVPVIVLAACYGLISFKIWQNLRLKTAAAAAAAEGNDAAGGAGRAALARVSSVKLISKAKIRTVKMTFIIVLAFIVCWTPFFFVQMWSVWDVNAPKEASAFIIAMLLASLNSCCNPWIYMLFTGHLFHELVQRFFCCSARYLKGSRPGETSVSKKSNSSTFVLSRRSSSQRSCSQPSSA
# Measurement protocol: Activity at oxytocin receptor in rat uterus
# Format: tissue-based
Where a SMILES comes first, the peptide text is derived from it. Bridges are numbered along the chain shown (N, C = ends).
Metric: Activity (U/mg)

(P) CC[C@H](C)[C@@H]1NC(=O)[C@H](Cc2ccc(O)cc2)NC(=O)[C@@H](N)CSSC[C@@H](C(=O)N2CCC[C@H]2C(=O)N[C@@H](CC(C)C)C(=O)NCC(N)=O)NC(=O)[C@H](CC(N)=O)NC(=O)[C@H]([C@@H](C)O)NC1=O (H-CYITNCPLG-NH2; disulfide 1-6)
(Q) CC[C@H](C)[C@@H]1NC(=O)[C@H](Cc2ccc(O)cc2)NC(=O)[C@@H](N)CSSC[C@@H](C(=O)N2CCC[C@H]2C(=O)N[C@@H](CC(C)C)C(=O)NCC(N)=O)NC(=O)[C@H](CC(N)=O)NC(=O)[C@H](CCC(N)=O)NC1=O
Query: Hi there, can you help? I need to know whether P or Q has lower measured Activity. Lab log: write the label of the selected item as the result.
Reply: Q
(Q: 520 U/mg, P: 923 U/mg)

* * *

# Test system: Oxytocin receptor (Rattus norvegicus)
# Measurement protocol: Activity at oxytocin receptor in rat uterus in presence of 0.5 mM Mg2+
# Type: tissue-based
*1 amine or outer side, *2 acyl side, *3 side chain or, on linkers, in order; H or OH if unused. Where a SMILES comes first, the peptide text is derived from it. Bridges are numbered along the chain shown (N, C = ends). X1 = O=C([C@@H](O)CS[*:2])[*:1]; X2 = O=C(CCC[*:2])[*:1]
Metric: Activity (U/mg)
Report the figure in U/mg without appending any unit label.

compound="CC[C@H](C)[C@@H]1NC(=O)[C@H](Cc2ccc(O)cc2)NC(=O)[C@@H](O)CSSC[C@@H](C(=O)N2CCC[C@H]2C(=O)N[C@@H](CC(C)C)C(=O)NCC(N)=O)NC(=O)[C@H](CC(N)=O)NC(=O)[C@H]([C@@H](C)O)NC1=O (YITNCPLG-NH2; linker N-5 via X1)" metric=Activity measured_value=937

Now turn to the next compound.
Query: Identify the reported Activity for the following entry. CC[C@H](C)[C@@H]1NC(=O)[C@H](Cc2ccc(O)cc2)NC(=O)CCCSC[C@@H](C(=O)N2CCC[C@H]2C(=O)N[C@@H](CC(C)C)C(=O)NCC(N)=O)NC(=O)[C@H](CC(N)=O)NC(=O)[C@H](CCC(N)=O)NC1=O (YIQNCPLG-NH2; linker N-5 via X2)
Reply: 921

* * *

# Test system: UniProt:P70536
# Measurement protocol: Activity at oxytocin receptor in rat mammary strip
*1 amine or outer side, *2 acyl side, *3 side chain or, on linkers, in order; H or OH if unused. Where a SMILES comes first, the peptide text is derived from it. Bridges are numbered along the chain shown (N, C = ends). [ ]: non-standard residue; d: D form. Abu(4-yl) = O=C([C@H](CC[*:3])N[*:1])[*:2]; X1 = O=C([C@@H](O)CS[*:2])[*:1]; X2 = O=C(CCC[*:2])[*:1]
Metric: Activity (U/mg)

A selection of reference data follows.
molecule="CC[C@H](C)[C@@H]1NC(=O)[C@H](Cc2ccc(O)cc2)NC(=O)[C@@H](N)CCSC[C@@H](C(=O)N2CCC[C@H]2C(=O)N[C@@H](CC(C)C)C(=O)NCC(N)=O)NC(=O)[C@H](CC(N)=O)NC(=O)[C@H](CCC(N)=O)NC1=O (H-[Abu(4-yl)]YIQNCPLG-NH2; thioether 1-6)" metric=Activity measured_value=177
molecule="CC[C@H](C)[C@@H]1NC(=O)[C@H](Cc2ccc(O)cc2)NC(=O)[C@@H](O)CSSC[C@@H](C(=O)N2CCC[C@H]2C(=O)N[C@@H](CC(C)C)C(=O)NCC(N)=O)NC(=O)[C@H](CC(N)=O)NC(=O)[C@H]([C@@H](C)O)NC1=O (YITNCPLG-NH2; linker N-5 via X1)" metric=Activity measured_value=378

(A) CC[C@H](C)[C@@H]1NC(=O)[C@H](Cc2ccc(O)cc2)NC(=O)CCCSC[C@@H](C(=O)N2CCC[C@H]2C(=O)N[C@@H](CC(C)C)C(=O)NCC(N)=O)NC(=O)[C@H](CC(N)=O)NC(=O)[C@H](CCC(N)=O)NC1=O (YIQNCPLG-NH2; linker N-5 via X2)
(B) CC[C@H](C)[C@@H]1NC(=O)[C@H](Cc2ccc(O)cc2)NC(=O)[C@@H](O)CSSC[C@@H](C(=O)N2CCC[C@H]2C(=O)N[C@@H](CC(C)C)C(=O)NCC(N)=O)NC(=O)[C@H](CC(N)=O)NC(=O)[C@H](CCC(N)=O)NC1=O (YIQNCPLG-NH2; linker N-5 via X1)
Query: Hi there, can you help? I need to know whether A or B has lower measured Activity. Lab log: write the label of the selected item as the result.
Reply: B

* * *

# Test system: Oxytocin receptor (Rattus norvegicus) (UniProt P70536)
# Sequence (whole entry): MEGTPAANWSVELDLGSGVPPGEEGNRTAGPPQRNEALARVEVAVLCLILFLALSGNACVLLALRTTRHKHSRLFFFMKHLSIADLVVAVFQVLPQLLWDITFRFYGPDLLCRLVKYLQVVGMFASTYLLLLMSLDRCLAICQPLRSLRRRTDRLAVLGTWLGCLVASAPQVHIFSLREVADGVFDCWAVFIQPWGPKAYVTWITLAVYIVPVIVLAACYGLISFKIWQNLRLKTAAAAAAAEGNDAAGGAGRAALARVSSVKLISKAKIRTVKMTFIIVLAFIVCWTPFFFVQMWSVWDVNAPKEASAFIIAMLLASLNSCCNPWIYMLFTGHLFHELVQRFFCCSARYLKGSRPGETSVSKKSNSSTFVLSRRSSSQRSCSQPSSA
# Measurement protocol: Activity at oxytocin receptor in rat uterus in presence of 0.5 mM Mg2+
# Format: tissue-based
*1 amine or outer side, *2 acyl side, *3 side chain or, on linkers, in order; H or OH if unused. Where a SMILES comes first, the peptide text is derived from it. Bridges are numbered along the chain shown (N, C = ends). [ ]: non-standard residue; d: D form. X1 = O=C([C@@H](O)CS[*:2])[*:1]; Mpa = O=C(O)CCS
Metric: Activity (U/mg)

compound="CC[C@H](C)[C@@H]1NC(=O)[C@H](Cc2ccc(O)cc2)NC(=O)[C@@H](N)CSSC[C@@H](C(=O)N2CCC[C@H]2C(=O)N[C@@H](CC(C)C)C(=O)NCC(N)=O)NC(=O)[C@H](CC(N)=O)NC(=O)[C@H]([C@@H](C)O)NC1=O (H-CYITNCPLG-NH2; disulfide 1-6)" metric=Activity unit_abbreviation=U/mg measured_value=719
compound="CC[C@H](C)[C@@H]1NC(=O)[C@H](Cc2ccc(O)cc2)NC(=O)[C@@H](O)CSSC[C@@H](C(=O)N2CCC[C@H]2C(=O)N[C@@H](CC(C)C)C(=O)NCC(N)=O)NC(=O)[C@H](CC(N)=O)NC(=O)[C@H](CCC(N)=O)NC1=O (YIQNCPLG-NH2; linker N-5 via X1)" metric=Activity unit_abbreviation=U/mg measured_value=868

(A) CC[C@H](C)[C@@H]1NC(=O)[C@H](Cc2ccc(O)cc2)NC(=O)CCSSC[C@@H](C(=O)N2CCC[C@H]2C(=O)N[C@@H](CC(C)C)C(=O)NCC(N)=O)NC(=O)[C@H](CC(N)=O)NC(=O)[C@H]([C@@H](C)O)NC1=O ([Mpa]YITNCPLG-NH2; disulfide 1-6)
(B) CC[C@H](C)[C@@H]1NC(=O)[C@H](Cc2ccc(O)cc2)NC(=O)CCSSC[C@H](C(=O)N2CCC[C@H]2C(=O)N[C@@H](CC(C)C)C(=O)NCC(N)=O)NC(=O)[C@H](CC(N)=O)NC(=O)[C@H](CCC(N)=O)NC1=O
(C) CC[C@H](C)[C@@H]1NC(=O)[C@H](Cc2ccc(O)cc2)NC(=O)[C@@H](N)CSSC[C@@H](C(=O)N2CCC[C@H]2C(=O)N[C@@H](CC(C)C)C(=O)NCC(N)=O)NC(=O)[C@H](CC(N)=O)NC(=O)[C@H](CCC(N)=O)NC1=O
Query: Your job: order these 3 records by Activity, ascending. Response format: the labels, sorted as the prompt asks.
Reply: A, C, B
(A: 242 U/mg, C: 486 U/mg, B: 760 U/mg)
